Data credit: ChEMBL document CHEMBL3991601

Give Kd for every item shown.
Calls of active or inactive are those of the source.

Summary line: CC[C@H](Nc1ncnc2[nH]cnc12)c1nc2cccc(F)c2c(=O)n1-c1ccccc1 [IDELALISIB] , Rho-associated protein kinase 1 (Homo sapiens, UniProt Q13464), reported Kd = > 30 µM (inactive)

Per the reported Rho-associated protein kinase 1 (Homo sapiens, UniProt Q13464) data, CN(C)C(=O)c1cc2cnc(Nc3ccc(N4CCNCC4)cn3)nc2n1C1CCCC1 [RIBOCICLIB] has Kd of > 30 µM (inactive)

Field Kd (system: Rho-associated protein kinase 1 (Homo sapiens, UniProt Q13464)) for entry O=C(c1ccc(F)c(F)c1Nc1ccc(I)cc1F)N1CC(O)([C@@H]2CCCCN2)C1 [COBIMETINIB] = > 30 µM (inactive)

Lab entry: Rho-associated protein kinase 1 (Homo sapiens, UniProt Q13464) assay, molecule Cn1cc(-c2ccc(F)c(C(F)(F)F)c2)nc1C1CCN(c2ncnc3[nH]ncc23)CC1 [LY-2584702] , Kd = > 30 µM (inactive)
